Data origin: PubChem BioAssay

test: plasmodial surface anion channel blockers, osmotic lysis – cell-based, P. falciparum Indochina, OD700, 18 h, primary screen (AID 1157); conditions: P. falciparum Indochina infected erythrocytes, osmotic lysis OD700, 18 h; higher = more signal, called active from +8 up or from −8 down
Consider the following compounds; for each one, report its z-score.
Give bare numbers.

Some solved cases for reference:
Given item C=CCN1C(=O)[C@]2(Cc3ccccc31)N=C(c1ccc(OCCCO)cc1)O[C@@H]2c1ccccc1 , the value recorded as its z-score is 3.1

Given item CCOC(=O)C1=CC[C@@H](c2cccc(Cl)c2)N(S(=O)(=O)c2ccc(C)cc2)[C@H]1c1ccc(C#N)cc1 , the value recorded as its z-score is 0.729

Given item CC(C)[C@H]1COC(=O)N1C(=O)[C@H]1[C@@H](c2ccccc2)N(c2ccccc2)O[C@@H]1C , the value recorded as its z-score is 0.206

Dear colleague, could you send me z-score for each of the items below? Thanks.
1. CN(C)CCCC[C@@H]1NC(=O)[C@@H]2C[C@H](C(=O)NCCCCCCN)[C@H](c3ccc(O)cc3)N2C1=O
2. CO[C@H]1O[C@H](CO)[C@@H](OC(=O)Nc2ccccc2-c2ccccc2)[C@H](OC(=O)Nc2ccccc2-c2ccccc2)[C@H]1OC(=O)Nc1ccccc1-c1ccccc1
3. O=C1C[C@@](C(=O)O)(c2ccc([N+](=O)[O-])cc2)[C@@H](c2ccc(CO)cc2I)N1C1CCCCC1
4. COCCCNC(=O)[C@]1(Cc2ccccc2N=[N+]=[N-])N=C(c2ccc(OCCCO)cc2)O[C@@H]1c1ccccc1CN=[N+]=[N-]

Data returned:
0.229
1.16
0.202
2.71

Dear colleague, could you send me z-score for each of the items below? Thanks.
1. CCCC[C@@H]1C[C@H]1[C@@H](NC(=O)c1ccco1)c1ccccc1
2. COCCOC(=O)N1C(=O)[C@@]2(c3cc(C#Cc4ccc(OC)cc4)ccc31)[C@H](c1ccc(O)cc1)N1[C@H](c3ccccc3)[C@H](c3ccccc3)OC(=O)[C@H]1[C@@H]2C(=O)N1CCN(c2ncccn2)CC1
3. COCCOC(=O)N1C(=O)[C@@]2(c3cc(C#Cc4ccc(OC)cc4)ccc31)[C@H](C(N)=O)[C@H]1C(=O)O[C@H](c3ccccc3)[C@H](c3ccccc3)N1[C@@H]2c1ccc(O)cc1
4. O=C1OCC=C[C@H]2OC34C=CCN(Cc5ccccc5)C(=O)[C@H]3N(CCCO)C(=O)[C@@H]4[C@@H]12 (some centres undefined)

Data returned:
1: 0.545; 2: 0.59; 3: -1.13; 4: -1.05

Dear colleague, could you send me z-score for each of the items below? Thanks.
1. [N-]=[N+]=Nc1ccccc1[C@H]1OC(c2ccc(OCCCO)cc2)=N[C@@]1(CCS(=O)(=O)c1ccccc1)C(=O)N1CCOCC1
2. C=C(/C(=C/C[C@@H](OC(=O)c1ccncc1)c1ccc(CO)o1)c1cc(C(=O)OC)ccc1OC)C(C)C
3. COc1ccc(CCNC(=O)[C@@]2(C)c3ccccc3C(=O)N(Cc3ccccc3)[C@H]2c2ccc(CO)cc2)cc1

Data returned:
4.6
0.529
-0.73
